Molecular target: T1, cynomolgus monkey CD3 E&D complex protein (Sino Biological Inc., CT032-00323H) (cynomolgus monkey, UniProt Q95LI5 22-117; Q95LI8 22-105)
T1 construct: bought heterodimer
T1 sequence (Q95LI5 22-117, chain 1 of 2): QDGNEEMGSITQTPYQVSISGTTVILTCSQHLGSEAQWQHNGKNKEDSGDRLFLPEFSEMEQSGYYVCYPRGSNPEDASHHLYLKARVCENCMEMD
T1 sequence (Q95LI8 22-105, chain 2 of 2): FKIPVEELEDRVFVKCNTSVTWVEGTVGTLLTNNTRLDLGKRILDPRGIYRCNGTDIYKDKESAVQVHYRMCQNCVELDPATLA
Assay: BLI, antibody on sensor
Catalogue of Kd values
Quick note: give the figure in nM, leave out the unit.

Worked examples follow.
q: For the binder hzsp34.13 (antibody, human IgG1, lambda, L234A L235A, V domains shown, IgG1 L234A L235A, lambda) VH: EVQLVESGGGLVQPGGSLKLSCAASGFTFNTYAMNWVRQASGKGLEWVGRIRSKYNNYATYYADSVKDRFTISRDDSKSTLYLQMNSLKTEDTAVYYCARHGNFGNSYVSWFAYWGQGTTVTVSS VL: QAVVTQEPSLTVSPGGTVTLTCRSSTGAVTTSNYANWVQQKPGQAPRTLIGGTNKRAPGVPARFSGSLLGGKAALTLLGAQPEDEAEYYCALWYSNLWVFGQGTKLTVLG , what Kd is on record?
a: 1.75

q: # repeat for hzsp34.28 (antibody, human IgG1, kappa, L234A L235A, V domains shown, IgG1 L234A L235A, kappa) VH: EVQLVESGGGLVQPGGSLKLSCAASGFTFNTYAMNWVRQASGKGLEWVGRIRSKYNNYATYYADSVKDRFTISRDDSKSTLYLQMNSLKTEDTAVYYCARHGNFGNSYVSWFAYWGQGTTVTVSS VL: EIVMTQSPATLSVSPGERATLSCRSSTGAVTTSNYANWYQQKPGQAPRLLIYGTNKRAPGIPARFSGSGSGTEFTLTISSLQSEDFAVYYCALWYSNLWVFGQGTKLTVLR
a: 2.82

Then this binder:
q: Which measured Kd value corresponds to hzsp34.19 (antibody, human IgG1, lambda, L234A L235A, V domains shown, IgG1 L234A L235A, lambda) VH: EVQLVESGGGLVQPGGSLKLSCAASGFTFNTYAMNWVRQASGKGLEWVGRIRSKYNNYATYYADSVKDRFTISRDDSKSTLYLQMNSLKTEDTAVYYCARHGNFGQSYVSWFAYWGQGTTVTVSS VL: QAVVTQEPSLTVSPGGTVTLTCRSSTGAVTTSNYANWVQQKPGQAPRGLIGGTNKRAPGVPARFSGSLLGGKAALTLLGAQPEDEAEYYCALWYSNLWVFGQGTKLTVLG ?
a: 0.602
